Data provenance is the supplement of paper PMC13380429.

- Tested on: Vero E6 infected with SARS-CoV-2
- test_method_notes: inhibition of SARS-CoV-2 cytopathic effect; higher = more antiviral protection, active = above 15
- details: 1 nM; 48 h
property_name: inhibition of SARS-CoV-2 cytopathic effect (%)
One number for each entry, in %.

Completed entries (count: 7):
Cc1noc(NS(=O)(=O)c2ccc(N)cc2)c1C ... -0.27
NC(=O)c1[nH]cnc1O ... 0.65
CC(C)N(CCCNC(=O)Nc1ccc(C(C)(C)C)cc1)C[C@H]1O[C@@H](n2ccc3c(N)ncnc32)[C@H](O)[C@@H]1O ... 4.48
CCOC(=O)c1c(/C(C#N)=C\N)c2ccc(Cl)c(Cl)c2n1C ... -0.1
O=C(Nc1cccc(Cl)c1)Nc1ncc(CCNc2ncnc3ccsc23)s1 ... 0.21
CC[C@H](C)C[C@H](C)CCCCCCCCC(=O)N[C@H]1C[C@@H](O)[C@@H](NCCN)NC(=O)[C@@H]2[C@@H](O)CCN2C(=O)[C@H]([C@H](O)CCN)NC(=O)[C@H]([C@H](O)[C@@H](O)c2ccc(O)cc2)NC(=O)[C@@H]2C[C@@H](O)CN2C(=O)[C@H]([C@@H](C)O)NC1=O ... 0.56
CC(=O)N[C@@H](CS)C(=O)O ... 1.87

Could you now look at the following compound, please?
-- ask Which inhibition of SARS-CoV-2 cytopathic effect is reported for this compound? Cc1c(C)c(NCC(=O)N(C)C2CCN(Cc3ccc(C(N)=O)cc3)CC2)c(C)c(C)c1N
-- reply -0.43
